Data origin: patent US20150353495A1

# system: JAK2 (Homo sapiens, UniProt O60674)
# Construct: 5 μl of catalytic domain recombinant Kinase enzyme+Tyr peptide substrate (Invitrogen, CA)
# Sequence (O60674 849-1124 limits assumed): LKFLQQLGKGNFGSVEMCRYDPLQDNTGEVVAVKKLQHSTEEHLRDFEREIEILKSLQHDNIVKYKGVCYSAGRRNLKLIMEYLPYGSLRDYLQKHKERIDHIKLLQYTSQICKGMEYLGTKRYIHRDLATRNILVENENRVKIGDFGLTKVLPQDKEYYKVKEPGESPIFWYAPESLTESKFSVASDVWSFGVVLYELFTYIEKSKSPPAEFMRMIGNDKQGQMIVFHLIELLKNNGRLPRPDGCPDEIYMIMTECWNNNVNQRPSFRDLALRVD
# measurement.notes: Z'-LYTE kinase assay JAK2
# IC50 values compiled below

Observe how each entry below is paired with its result.
[[record]]
item_smiles = "Cc1cc(Nc2cc(NCc3cncnc3)c(C(N)=O)cn2)ccc1C(=O)N(C)C"
result = "> 1 µM"

[[record]]
item_smiles = "NC(=O)c1cc(F)c(Nc2cccc(-n3nccn3)c2)nc1NCc1ccccc1"
result = "> 1 µM"


# input Return reported IC50; argument: `COc1ccc(Nc2cc(NCc3cccc(F)c3)c(C(N)=O)cn2)cc1`
# output 0.1 to 1 µM

# input # iterate: `CC(=O)Nc1cccc(Nc2nc(N[C@H](C)c3ccccc3)c(C(N)=O)cc2F)c1`
# output > 1 µM
